tested on: 786-0; test: NCI tumour cell line growth inhibition, 48 h
Calls of active or inactive are those of the source. Cut-off read from the data, not from the text of the source: active = GI50 up to about 1.1 µM and inactive = higher.
Outcome (select one): yes (1) = active, no (0) = inactive

Query: recorded result category for C/C(=N\NC(=S)N1CC2CCC(CC2)C1)c1cccc(C)n1 in this test
yes (1)

Query: recorded result category for CNC(=O)CCC(NC(=O)OC(C)(C)C)C(=O)NC(Cc1ccc(NC(=O)CCCCC(C)=O)cc1)C(=O)NCC(=O)NC (stereo not given) in this test
no (0)

Query: recorded result category for COc1ccc2c(c1)C(=O)CC(C(N)=O)C2 (stereo not given) in this test
no (0)

Query: recorded result category for CC1=CC(=O)c2cccc(NC3=NCCO3)c21 in this test
no (0)

Query: recorded result category for COc1cc2c(cc1OC)C/C(=N\O)c1cc(OC)c(OC)cc1/C=C\2 in this test
no (0)

* * *

Provide the reported GI50 of each item.
tested on: HT-29; test: NCI tumour cell line growth inhibition, 48 h
The source made the active and inactive calls. Rule as the data show it: active = GI50 up to about 1.1 µM and inactive = higher.

Form: item CC(=O)NC1=C(C)C(=O)c2c(nc3n2CC[C@H]3OC(C)=O)C1=O ; test system HT-29; GI50: 2.47 µM (inactive)

Form: item O=C(NO)C12C3C4C1C1C2C3C41C(=O)NO (stereo not given) ; test system HT-29; GI50: > 100 µM (inactive)

Form: item C=C1C[C@]23CC[C@@H]4C(CO)(CO)CC(=O)C[C@]4(C)[C@@H]2CC[C@H]1C3 ; test system HT-29; GI50: > 100 µM (inactive)

Form: item Cc1cc(O)nc(NN2C(Cl)C(=O)C2c2ccc(Cl)cc2)n1 (stereo not given) ; test system HT-29; GI50: 18 µM (inactive)

Form: item O=S(OC12CC3CC(CC(C3)C1)C2)c1cc(Cl)cc(Cl)c1OCc1ccccc1 (stereo not given) ; test system HT-29; GI50: > 100 µM (inactive)

Form: item C/C(CCn1[nH]c(=O)ccc1=O)=N\O ; test system HT-29; GI50: > 100 µM (inactive)

Form: item O=S(=O)(N/N=C/c1ccc(Cl)c(Cl)c1)c1ccccc1 ; test system HT-29; GI50: 40.1 µM (inactive)

Form: item CCOC(=O)Cc1[nH]c(C(=O)c2ccccc2)cc1C(=O)c1ccccc1 ; test system HT-29; GI50: > 10 µM (inactive)

Form: item COc1cc(C=O)cc(/C=N/c2ccc(Br)cc2)c1O ; test system HT-29; GI50: 17.7 µM (inactive)

Form: item CC(C)C(=O)OCN(C)c1nc(N(C)COC(=O)C(C)C)nc(N(C)COC(=O)C(C)C)n1 ; test system HT-29; GI50: 25.2 µM (inactive)

* * *

tested on: HCC 2998; test: NCI tumour cell line growth inhibition, 48 h
Calls of active or inactive are those of the source. Cut-off read from the data, not from the text of the source: active = GI50 up to about 1.1 µM and inactive = higher.
Outcome (select one): active, inactive

Query: recorded result category for CCC(CC)C(=O)OC[n+]1ccc(-c2c(COC(=O)NC(C)C)c(COC(=O)NC(C)C)c3n2CCC3)cc1 in this test
inactive

Query: recorded result category for CN(C)CCCNC(=O)c1cc(NC(=O)c2cc(NS(=O)(=O)c3ccc4c(c3)C(=O)c3ccccc3C4=O)cn2C)cn1C in this test
inactive

Query: recorded result category for O/N=C1\Nc2ccccc2OCc2cc(Br)c(Br)cc2COc2ccccc2N\C1=N/O in this test
inactive

Query: recorded result category for O=C(/C(=C\c1ccc(Cl)cc1)c1ccccc1)c1ccccc1 in this test
inactive

Query: recorded result category for O=C1/C(=N\O)c2ccccc2S1(=O)=O in this test
inactive

Query: recorded result category for O=S1(=O)N=C(SCc2c[nH]c3ccccc23)N(c2ccccc2)c2ccncc21 in this test
inactive

Query: recorded result category for Nc1ccn(C2CC(O)C(COP(=O)(S)OC3CC(n4ccc(N)nc4=O)OC3CO)O2)c(=O)n1 (stereo not drawn) in this test
inactive

Query: recorded result category for C=C(C)c1cc(C(C)(C)C)cc(C(=C)C)c1S(C)(=O)=O in this test
inactive

Query: recorded result category for CCOC(=O)Nc1ccc(S(=O)(=O)I)cc1.CCOC(=O)Nc1ccc(S(=O)(=O)I)cc1.CN(C=O)C1=C(N(C)C=O)C(N(C)C=O)=C(N(C)C=O)C(=O)C1=O in this test
inactive

Query: recorded result category for CCC(C)(O)c1cn(-c2ccc(Cl)cc2)nn1 (stereo not drawn) in this test
inactive

Query: recorded result category for C=C1c2nc3ccccc3n2C=C(c2ccc(OC)cc2)N1c1ccc(OCCN2CCOCC2)cc1 in this test
inactive

Query: recorded result category for COC1CC(OC2CCC3(C)C(=CCC4C3C(OC(C)=O)C(OC(=O)CC(C)C)C3(C)C(C(C)=O)CCC43O)C2)OC(C)C1OC1CC(OC)C(OC2CC(OC)C(OC3OC(C)C(OC4OC(CO)C(O)C(O)C4O)C(OC)C3O)C(C)O2)C(C)O1 (stereo not drawn) in this test
inactive

Query: recorded result category for COc1cc(-c2cc(-c3ccccc3)nc(-c3c(OC)ccc4c(C)cc(=O)oc34)c2)cc(OC)c1OC in this test
inactive

Query: recorded result category for OCc1ccc2c(c1)CC1(Cc3ccc(/C=N/O)cc3C1)C2 (stereo not drawn) in this test
inactive

Query: recorded result category for C[C@H]1CC(=O)C[C@@H]2CC[C@@H]3[C@H](CC[C@]4(C)C(OC(=O)c5cccc6c(=O)c7ccccc7[nH]c56)CC[C@@H]34)[C@]21C (stereo partly drawn) in this test
inactive

Query: recorded result category for CCN1CCC(O)(c2ccc(Oc3ccc(C)cc3)cc2)C(C(=O)c2ccc(Oc3ccc(C)cc3)cc2)C1 (stereo not drawn) in this test
inactive

Query: recorded result category for O=C1/C(=C/c2ccccc2)CCc2ccc([N+](=O)[O-])cc21 in this test
inactive

Query: recorded result category for COC1(OC)C[C@H](C)[C@@]23O[C@]24C2=CC(=O)C=CC2=N[C@H]3C#C/C=C\C#C[C@]14O in this test
active

* * *

system: T47D; assay: NCI tumour cell line growth inhibition, 48 h
Calls of active or inactive are those of the source. Cut-off read from the data, not from the text of the source: active = GI50 up to about 1.1 µM and inactive = higher.
ASSAY METRIC: GI50

Reported GI50 ( C[N+]12C=CC=C1C(N1CCCC1)c1sc(-c3ccc(Cl)cc3)cc12 (stereo not drawn) ) = 10.6 µM (inactive)

Reported GI50 ( CCOP(=O)(OCC)C(Cc1cn(S(=O)(=O)c2ccc(C)cc2)cn1)C(=O)O (stereo not drawn) ) = > 100 µM (inactive)

Reported GI50 ( OC(C#CCN1CCCC1)(c1ccccc1)c1ccccc1Cl (stereo not drawn) ) = 28.6 µM (inactive)

* * *

tested on: SF-539; assay: NCI tumour cell line growth inhibition, 48 h
Active and inactive are the calls of the source. Cut-off read from the data, not from the text of the source: active = GI50 up to about 1.1 µM and inactive = higher.
Provide the reported GI50 of each item.

Reported GI50 ( CC(=O)CCC1(c2ccccc2)OC(=O)C(C#N)=C1c1ccccc1 (centres undefined) ) = > 100 µM (inactive)

Reported GI50 ( O=C(Cc1csc(-c2nc(CC(=O)NNc3ccccc3)cs2)n1)NNc1ccccc1 ) = > 100 µM (inactive)

Reported GI50 ( COc1ccc2c(c1)CCCN2CCCCCCCCCCN(CCC(C)C)CCC(C)C ) = 3.39 µM (inactive)

Reported GI50 ( CCCCCCC(=O)O[C@H]1CC[C@H]2[C@@H]3CCC4C/C(=N/NC(=O)c5cccc6c(=O)c7ccccc7[nH]c56)C=C(C)[C@]4(C)[C@H]3CC[C@]12C (some centres undefined) ) = > 25 µM (inactive)

Reported GI50 ( COc1cc(-c2cc(-c3ccccc3)nc(-c3c(OC)ccc4c(C)cc(=O)oc34)c2)cc(OC)c1OC ) = > 100 µM (inactive)

Reported GI50 ( CCOC(=O)C1Nc2ccc([N+](=O)[O-])cc2[C@H]2OCC[C@@H]12 (some centres undefined) ) = > 100 µM (inactive)

Reported GI50 ( COCN1COCN(C)C1=O ) = > 100 µM (inactive)

Reported GI50 ( CC(=O)Nc1ccc(NS(=O)(=O)c2ccc3nc(C)n(NS(=O)(=O)c4ccc(NC(C)=O)cc4)c(=O)c3c2)cc1 ) = > 100 µM (inactive)

Reported GI50 ( Cc1nc(C)c(C(=O)NNC(=O)C[N+](C)(C)C)cc1C(=O)NNC(=O)C[N+](C)(C)C ) = > 100 µM (inactive)

* * *

system: ACHN; assay: NCI tumour cell line growth inhibition, 48 h
Active and inactive are the calls of the source. Cut-off read from the data, not from the text of the source: active = GI50 up to about 1.1 µM and inactive = higher.
Outcome (select one): active, inactive

Query: recorded result category for CCCCC1CCCCCCc2[nH]c(/C=C3\N=C(c4ccc[nH]4)C=C3OC)cc21 (centres undefined) in this test
active

Query: recorded result category for O=S(=O)(Nc1ccccc1)c1ccc(-c2c3nc(c(-c4ccc(S(=O)(=O)Nc5ccccc5)cc4)c4ccc([nH]4)c(-c4ccc(S(=O)(=O)Nc5ccccc5)cc4)c4nc(c(-c5ccc(S(=O)(=O)Nc6ccccc6)cc5)c5ccc2[nH]5)C=C4)C=C3)cc1 in this test
inactive

Query: recorded result category for CN1CN(C2OC(CO)C(O)C2O)c2nc(N)[nH]c(=O)c21 (centres undefined) in this test
inactive

Query: recorded result category for OC(CBr)C(O)C(O)C(O)CBr (centres undefined) in this test
inactive

Query: recorded result category for CC(C)[C@@H]1C=C(c2ccccc2)c2ccccc2C1C(C#N)(C#N)C(C)C (some centres undefined) in this test
inactive

Query: recorded result category for COC(=O)C1CCCN1C(=O)OC(C)(C)C (centres undefined) in this test
inactive

Query: recorded result category for COCC1C(=O)c2cc3c(cc2C12C=CC1(C=C2)OCCO1)OCO3 (centres undefined) in this test
inactive

Query: recorded result category for O=C(/C(=C/c1ccccc1)c1ccccc1)N1c2ccccc2CC1c1c[nH]c2ccccc12 (centres undefined) in this test
inactive

Query: recorded result category for CCN(CC)CCC(=O)Nc1ccc2c(c1)C(=O)c1ccc(NC(=O)CCN(CC)CC)cc1C2=O in this test
inactive

Query: recorded result category for COC1CC(OC2CCC3(C)C(=CCC4C3C(OC(C)=O)C(OC(=O)CC(C)C)C3(C)C(C(C)=O)CCC43O)C2)OC(C)C1OC1CC(OC)C(OC2CC(OC)C(OC3OC(C)C(OC4OC(CO)C(O)C(O)C4O)C(OC)C3O)C(C)O2)C(C)O1 (centres undefined) in this test
inactive

Query: recorded result category for CC(C)CC(=O)NC(Nc1ccc(S(=O)(=O)Nc2ncccn2)cc1)(C(F)(F)F)C(F)(F)F in this test
inactive

Query: recorded result category for COc1ccc(-c2c(-c3ccccc3)c(C)nc3[nH]c(=S)[nH]c(=S)c23)cc1OC in this test
inactive

Query: recorded result category for COc1cccc(C2c3cc4c(cc3OC(NNC(N)=O)C2C)OCO4)c1O (centres undefined) in this test
inactive

Query: recorded result category for NC1=NS(=O)(=O)Nc2nc(-c3ccc([N+](=O)[O-])cc3)[nH]c21 in this test
inactive
